- Test system: Staphylococcus aureus
- ASSAY_OVERVIEW: In vitro antibacterial activity of A5177 strain of Gram positive bacteria Staphylococcus aureus
- Assay type: functional
Param label: returns rule met when MIC < 0.2 µg/mL, returns rule not met otherwise, including exact equality.

[[record]]
query_smiles = "CC[C@H]1OC(=O)[C@H](C)[C@@H](O[C@H]2C[C@@](C)(OC)[C@@H](O)[C@H](C)O2)[C@H](C)[C@@H](O[C@@H]2O[C@H](C)C[C@H](N(C)C)[C@H]2O)[C@](C)(O)C[C@@H](C)C(=O)[C@H](C)[C@@H](O)[C@]1(C)O"
class = "rule not met"

[[record]]
query_smiles = "CC[C@H]1OC(=O)/C(C)=C/[C@H](C)[C@@H](O[C@@H]2O[C@H](C)C[C@H](N(C)C)[C@H]2O)[C@@](C)(OC)C[C@@H](C)C(=O)[C@H](C)[C@H]2N(N)C(=O)O[C@]12C"
class = "rule not met"

[[record]]
query_smiles = "CC[C@H]1OC(=O)/C(C)=C/[C@H](C)[C@@H](O[C@@H]2O[C@H](C)C[C@H](N(C)C)[C@H]2O)[C@@](C)(OC)C[C@@H](C)C(=O)[C@H](C)[C@H]2N(NCCCc3ccccc3N)C(=O)O[C@]12C"
class = "rule not met"

[[record]]
query_smiles = "CC[C@H]1OC(=O)/C(C)=C/[C@H](C)[C@@H](O[C@@H]2O[C@H](C)C[C@H](N(C)C)[C@H]2O)[C@@](C)(OC)C[C@@H](C)C(=O)[C@@H](C)[C@H]2N(N)C(=O)O[C@]12C"
class = "rule not met"

[[record]]
query_smiles = "CC[C@H]1OC(=O)/C(C)=C/[C@H](C)[C@@H](O[C@@H]2O[C@H](C)C[C@H](N(C)C)[C@H]2O)[C@@](C)(OC)C[C@@H](C)C(=O)[C@H](C)[C@H]2N(NCCCc3ccc(Cl)cc3)C(=O)O[C@]12C"
class = "rule met"

[[record]]
query_smiles = "CC[C@H]1OC(=O)/C(C)=C/[C@H](C)[C@@H](O[C@@H]2O[C@H](C)C[C@H](N(C)C)[C@H]2O)[C@@](C)(OC)C[C@@H](C)C(=O)[C@H](C)[C@H]2N(NCc3ccc(NC(C)=O)cc3)C(=O)O[C@]12C"
class = "rule not met"

[[record]]
query_smiles = "CC[C@H]1OC(=O)/C(C)=C/[C@H](C)[C@@H](O[C@@H]2O[C@H](C)C[C@H](N(C)C)[C@H]2O)[C@@](C)(OC)C[C@@H](C)C(=O)[C@H](C)[C@H]2N(NCCCc3ccc(OC)cc3)C(=O)O[C@]12C"
class = "rule not met"

[[record]]
query_smiles = "CC[C@H]1OC(=O)/C(C)=C/[C@H](C)[C@@H](O[C@@H]2O[C@H](C)C[C@H](N(C)C)[C@H]2O)[C@@](C)(OC)C[C@@H](C)C(=O)[C@H](C)[C@H]2N(NCCCn3nnc4ccccc43)C(=O)O[C@]12C"
class = "rule met"


MIC strictly < 0.2 µg/mL for this compound? CC[C@H]1OC(=O)/C(C)=C/[C@H](C)[C@@H](O[C@@H]2O[C@H](C)C[C@H](N(C)C)[C@H]2O)[C@@](C)(OC)C[C@@H](C)C(=O)[C@H](C)[C@H]2N(NCc3ccc([N+](=O)[O-])cc3)C(=O)O[C@]12C
rule met

Please check: MIC for CC[C@H]1OC(=O)/C(C)=C/[C@H](C)[C@@H](O[C@@H]2O[C@H](C)C[C@H](N(C)C)[C@H]2O)[C@@](C)(OC)C[C@@H](C)C(=O)[C@H](C)[C@H]2N(NCCCc3ccnc4ccccc34)C(=O)O[C@]12C , strictly under 0.2 µg/mL or not?
rule met

Lab log: compare recorded MIC with 0.2 µg/mL; is it strictly lower for CC[C@H]1OC(=O)/C(C)=C/[C@H](C)[C@@H](O[C@@H]2O[C@H](C)C[C@H](N(C)C)[C@H]2O)[C@@](C)(OC)C[C@@H](C)C(=O)[C@@H](C)[C@H]2N(NC/C=C/c3ccccc3)C(=O)O[C@]12C ?
rule not met

Bench note: check whether CC[C@H]1OC(=O)/C(C)=C/[C@H](C)[C@@H](O[C@@H]2O[C@H](C)C[C@H](N(C)C)[C@H]2O)[C@@](C)(OC)C[C@@H](C)C(=O)[C@H](C)[C@H]2N(NCc3ccc(N)cc3)C(=O)O[C@]12C shows MIC below 0.2 µg/mL
rule not met
